Each recorded value in this set is attributed to PubChem BioAssay (NCI).

- System: MDA-MB-435
- TEST: NCI tumour cell line growth inhibition, 48 h
Give TGI for every item shown.

Q: Request: TGI, test system MDA-MB-435, entry Cn1c2ccccc2c2nc3ccccc3c(Cl)c21
Ans: > 100 µM

Q: // next record COC(=O)c1nc(-c2nc(CCNC(=O)OC(C)(C)C)sc2Cl)sc1Cl
Ans: > 100 µM

Q: Try the compound CS(=O)(=O)CCn1c(=O)c(Oc2ccc(F)cc2F)cc2cnc(NC3CCOCC3)nc21
Ans: > 25 µM

Q: Would you kindly repeat that for O=C1CC2(CCC(O)(c3cccs3)C(C(=O)c3cccs3)C2)C(=O)c2ccccc2N1 (stereo not given) ?
Ans: > 100 µM

Q: Continue with CC(=O)c1sc(Nc2ccc(Cl)c(Cl)c2)nc1C
Ans: > 100 µM

Q: And the next one, O=C1c2ccccc2C(C2c3ccccc3C(=O)c3cc(Br)ccc32)c2ccc(Br)cc21 (stereo not given) ?
Ans: > 100 µM

Q: Same for CCOc1ccc2ccc3cccnc3c2n1
Ans: > 100 µM

Q: What do we get for Cc1cc(C)c2c(SCc3ccc(Cl)cc3Cl)nc(N)nc2n1 ?
Ans: > 100 µM

Q: Next compound up: CCOP(=O)(OCC)[C@]12C[C@@H](C)C=C[C@H]1COC2=O
Ans: > 100 µM

Q: Continue with CCc1c(O)c2c(c(O)c1C(C)=O)C(=O)c1c(cc(O)c(C(=O)O)c1C(=O)O)C2=O
Ans: > 100 µM
